Value source: patent US11618746B2

# Test System: G1 APOL1 (Homo sapiens, UniProt O14791, I384M/S342G)
# Sequence (O14791 28-398 S342G/I384M): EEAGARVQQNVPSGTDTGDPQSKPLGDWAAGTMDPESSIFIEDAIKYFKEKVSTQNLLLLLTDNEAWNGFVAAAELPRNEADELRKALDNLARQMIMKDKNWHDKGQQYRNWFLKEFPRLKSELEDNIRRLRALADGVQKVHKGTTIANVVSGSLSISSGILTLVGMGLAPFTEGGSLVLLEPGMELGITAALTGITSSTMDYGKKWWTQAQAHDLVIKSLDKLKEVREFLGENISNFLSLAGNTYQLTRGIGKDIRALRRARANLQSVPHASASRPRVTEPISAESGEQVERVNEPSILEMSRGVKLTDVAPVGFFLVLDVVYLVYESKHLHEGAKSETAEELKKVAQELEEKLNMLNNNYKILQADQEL
# Procedure Text: Acute APOL1 Thallium Assay with inducible stable clones of HEK 293 cells
# Run Parameters: HEK T-Rex tetracycline-inducible cells expressing G1 APOL1 (clone G1 DC3.25); inhibition of thallium flux rate
pIC50: −log10 of the molar value.
Parameter Measured: pIC50

[in] Tell me pIC50 reported for O=C(CCc1c(-c2ccccc2)[nH]c2ccc(F)cc12)N[C@@H]1C(=O)NC[C@H]1O
[out] > 6.60

[in] Tell me pIC50 reported for O=C(CCc1c(-c2ccc(F)cc2)[nH]c2c(F)c(F)ccc12)N[C@@H]1C(=O)NC[C@H]1O
[out] > 6.60

[in] Tell me pIC50 reported for N#Cc1cc(F)cc2c(CCC(=O)N[C@@H]3C(=O)NC[C@H]3O)c(-c3ccc(F)cc3)[nH]c12
[out] > 6.60

[in] Tell me pIC50 reported for O=C(CCc1c(-c2ccc(F)cc2)[nH]c2c(F)ccc(F)c12)N[C@H]1CCNC1=O
[out] < 6.00

[in] Tell me pIC50 reported for Cc1ccc(-c2[nH]c3c(F)cc(F)cc3c2CCC(=O)N[C@H]2CCNC2=O)cc1
[out] > 6.60

[in] Tell me pIC50 reported for O=C(CCc1c(-c2ccc(F)cc2)[nH]c2c(F)cc(F)cc12)N[C@H]1C[C@H](CF)NC1=O
[out] < 6.00

[in] Tell me pIC50 reported for O=C(CCc1c(-c2ccc(F)cc2)[nH]c2cc(F)c(F)cc12)N[C@@H]1C(=O)NC[C@H]1O
[out] > 6.60

###

# Test System: G1 APOL1 (Homo sapiens, UniProt O14791, I384M/S342G)
# Procedure Text: Acute APOL1 Thallium Assay with inducible stable clones of HEK 293 cells
# Run Parameters: HEK T-Rex tetracycline-inducible cells expressing G1 APOL1 (clone G1 DC3.25); inhibition of thallium flux rate
Parameter Measured: IC50

[in] Tell me IC50 reported for O=C(CCc1c(-c2ccc(F)cc2)[nH]c2ccc(F)cc12)N[C@@H]1CCNC1=O [Compound 49]
[out] 250 to 1000 nM

[in] Tell me IC50 reported for CN(C(=O)CCc1c(-c2ccc(F)cc2)[nH]c2ccc(F)cc12)C1CCNC1=O (stereo not shown) [Compound 50]
[out] 250 to 1000 nM

[in] Tell me IC50 reported for O=C(CCc1c(-c2ccc(F)cc2)[nH]c2cc(O)ccc12)N[C@@H]1C(=O)NC[C@H]1O (stereo in doubt) [Compound 110]
[out] > 1000 nM

[in] Tell me IC50 reported for O=C(CCc1c(-c2cccc(F)c2)[nH]c2c(F)cc(F)cc12)N[C@@H]1C(=O)NC[C@H]1O [Compound 103]
[out] < 250 nM

###

# Test System: G1 APOL1 (Homo sapiens, UniProt O14791, I384M/S342G)
# Procedure Text: Acute APOL1 Thallium Assay with inducible stable clones of HEK 293 cells
# Run Parameters: HEK T-Rex tetracycline-inducible cells expressing G1 APOL1 (clone G1 DC3.25); inhibition of thallium flux rate
# Text: Acute APOL1 Thallium Assay with Inducible Stable Clones of HEK 293 Cells Apolipoprotein L1 (APOL1) proteins form potassium-permeable cation pores in the plasma membrane. APOL1 risk variants (G1 and G2) induce greater potassium flux than G0 in HEK293 cells. […] The increase of fluorescence in the assay represents the influx of T1+ into the cell specifically through the potassium channel (i.e. through APOL1 pores), providing a functional measurement of potassium channel/pore activity. […]
pIC50: −log10 of the molar value.
Parameter Measured: pIC50

[in] Give measured pIC50 for CC(C)c1cccc2c(CCC(=O)N[C@@H]3C(=O)NC[C@H]3O)c(-c3ccccc3)[nH]c12 (G1 APOL1 (Homo sapiens, UniProt O14791, I384M/S342G)).
[out] 6.00 to 6.60

[in] Give measured pIC50 for O=C(CCc1c(-c2ccc(F)cc2)[nH]c2c(F)cccc12)N[C@@H]1C(=O)NC[C@H]1O (G1 APOL1 (Homo sapiens, UniProt O14791, I384M/S342G)).
[out] > 6.60

[in] Give measured pIC50 for O=C(CCc1c(-c2ccc(F)cc2)[nH]c2c(Cl)cccc12)N[C@H]1CCNC1=O (G1 APOL1 (Homo sapiens, UniProt O14791, I384M/S342G)).
[out] > 6.60

[in] Give measured pIC50 for O=C(CCc1c(-c2ccc(F)cc2)[nH]c2c(Cl)cc(F)cc12)N[C@@H]1C(=O)NC[C@H]1O (G1 APOL1 (Homo sapiens, UniProt O14791, I384M/S342G)).
[out] > 6.60

[in] Give measured pIC50 for Cc1ccc(-c2[nH]c3ccccc3c2CCC(=O)N[C@@H]2C(=O)NC[C@H]2O)cc1 (G1 APOL1 (Homo sapiens, UniProt O14791, I384M/S342G)).
[out] > 6.60

[in] Give measured pIC50 for C[C@H]1CNC(=O)[C@H]1NC(=O)CCc1c(-c2ccc(F)cc2)[nH]c2c(F)cc(F)cc12 (G1 APOL1 (Homo sapiens, UniProt O14791, I384M/S342G)).
[out] < 6.00

[in] Give measured pIC50 for O=C(CCc1c(-c2ccc(F)cc2)[nH]c2c(F)cc(F)cc12)N[C@H]1C[C@H](CO)NC1=O (G1 APOL1 (Homo sapiens, UniProt O14791, I384M/S342G)).
[out] < 6.00

[in] Give measured pIC50 for O=C(CCc1c(-c2ccc(F)cc2)[nH]c2ccc(OCc3ccccc3)cc12)N[C@H]1CCNC1=O (G1 APOL1 (Homo sapiens, UniProt O14791, I384M/S342G)).
[out] 6.00 to 6.60

[in] Give measured pIC50 for Cc1cc(F)cc2c(CCC(=O)N[C@@H]3C(=O)NC[C@H]3O)c(-c3ccc(F)cc3)[nH]c12 (G1 APOL1 (Homo sapiens, UniProt O14791, I384M/S342G)).
[out] > 6.60

[in] Give measured pIC50 for Cc1cc(F)cc2c(CCC(=O)N[C@H]3CCNC3=O)c(-c3ccc(F)cc3)[nH]c12 [Compound 39] (G1 APOL1 (Homo sapiens, UniProt O14791, I384M/S342G)).
[out] 6.00 to 6.60

[in] Give measured pIC50 for O=C(CCc1c(-c2ccc(F)cc2)[nH]c2ccccc12)N[C@@H]1C(=O)NC[C@H]1O (G1 APOL1 (Homo sapiens, UniProt O14791, I384M/S342G)).
[out] > 6.60

[in] Give measured pIC50 for O=C(CSc1c(-c2ccc(F)cc2)[nH]c2ccccc12)N[C@@H]1C(=O)NC[C@H]1O (G1 APOL1 (Homo sapiens, UniProt O14791, I384M/S342G)).
[out] > 6.60

[in] Give measured pIC50 for Cc1ccc(-c2[nH]c3c(F)cc(F)cc3c2CCC(=O)N[C@@H]2CCNC2=O)cc1 (G1 APOL1 (Homo sapiens, UniProt O14791, I384M/S342G)).
[out] > 6.60

[in] Give measured pIC50 for N#Cc1ccc(-c2[nH]c3ccccc3c2CCC(=O)N[C@@H]2C(=O)NC[C@H]2O)cc1 (G1 APOL1 (Homo sapiens, UniProt O14791, I384M/S342G)).
[out] > 6.60

[in] Give measured pIC50 for O=C(CCc1c(-c2ccc(F)cc2)[nH]c2c(F)c(F)c(F)cc12)N[C@@H]1C(=O)NC[C@H]1O (G1 APOL1 (Homo sapiens, UniProt O14791, I384M/S342G)).
[out] > 6.60

###

# Test System: G1 APOL1 (Homo sapiens, UniProt O14791, I384M/S342G)
# Procedure Text: Acute APOL1 Thallium Assay with inducible stable clones of HEK 293 cells
# Run Parameters: HEK T-Rex tetracycline-inducible cells expressing G1 APOL1 (clone G1 DC3.25); inhibition of thallium flux rate
pIC50: −log10 of the molar value.
Give measured pIC50 for each item. Keep answers brief.

[in] Give measured pIC50 for CC(=O)O[C@@H]1CNC(=O)[C@H]1NC(=O)CCc1c(-c2ccc(F)cc2)[nH]c2c(F)cc(F)cc12 (G1 APOL1 (Homo sapiens, UniProt O14791, I384M/S342G)).
[out] < 6.00

[in] Give measured pIC50 for O=C(CCc1c(-c2ccc(F)cc2)[nH]c2c(C(F)(F)F)cccc12)N[C@@H]1C(=O)NC[C@H]1O (G1 APOL1 (Homo sapiens, UniProt O14791, I384M/S342G)).
[out] > 6.60

[in] Give measured pIC50 for Cc1cc(-c2[nH]c3ccccc3c2CCC(=O)N[C@@H]2C(=O)NC[C@H]2O)ccc1F (G1 APOL1 (Homo sapiens, UniProt O14791, I384M/S342G)).
[out] > 6.60

[in] Give measured pIC50 for C[C@@H](Cc1c(-c2ccc(F)cc2)[nH]c2c(F)cc(F)cc12)C(=O)N[C@@H]1C(=O)NC[C@H]1O (G1 APOL1 (Homo sapiens, UniProt O14791, I384M/S342G)).
[out] 6.00 to 6.60

[in] Give measured pIC50 for O=C(CCc1c(-c2ccccc2)[nH]c2cc(F)cc(F)c12)N[C@@H]1C(=O)NC[C@H]1O (G1 APOL1 (Homo sapiens, UniProt O14791, I384M/S342G)).
[out] > 6.60

[in] Give measured pIC50 for O=C(CCc1c(-c2ccc(F)cc2)[nH]c2ccccc12)N[C@H]1C(=O)NC[C@H]1O (G1 APOL1 (Homo sapiens, UniProt O14791, I384M/S342G)).
[out] 6.00 to 6.60

[in] Give measured pIC50 for Cc1ccc(-c2[nH]c3ccccc3c2CCC(=O)N[C@@H]2C(=O)NC[C@H]2O)c(F)c1 (G1 APOL1 (Homo sapiens, UniProt O14791, I384M/S342G)).
[out] > 6.60
